- System: LOX IMVI melanoma
- Experimental Protocol: NCI-60 one-dose screen, 48 h
- Applied Conditions: 10 µM unless noted
This is part of a sample that, as a whole, favours compounds with a hit. Of some 83,000 tested, about 20% had one in any assay. Calls of active or inactive are those of the source. Rule for the calls: active = growth percent below 10; inactive = the rest.
Write down the outcome that applies. Available outcomes: active, inactive

Solved cases below.
Molecule	Class
COc1ccc(/C=C/c2nc(Nc3ccc(Cl)cc3)c3ccccc3n2)cc1	inactive
COc1ccc(/C=C(\C#N)n2nc3cccc(F)c3n2)cc1	inactive

Hi, do you know how OC(c1ccc(F)c(C(F)(F)F)c1)c1cnccc1NC1CCCCC1 (stereo not given) came out in this test?
inactive

Hi, do you know how CCCCCCCC(=O)OCC/C=C/C1OC1C1OC(=O)/C=C\C=C\C(=O)N(C(C)=O)C(=O)/C=C(/C)CCC2OC2C1OC(=O)NC(C)=O (stereo not given) came out in this test?
inactive

Hi, do you know how Cc1cc2nc3c4cc(C=O)ccc4n(CCN(C)C)c3nc2cc1C came out in this test?
active
